Tested on: RAW-Dual
assay.info: NF-kB SEAP reporter activity, fold change vs agonist alone; cytotoxicity flag (confluency mask): not cytotoxic; higher = enhanced NF-kB activity
setup.conditions: agonist: Pam3CSK4 (TLR2/1) 0.1 ug/mL
Over roughly 2,900 compounds, “NF-kB SEAP reporter activity, fold change vs agonist alone” has its median near 0.99; the highest 2% begin near 2.6. This excerpt belongs to a sample that is enriched for the highest values.
result.type: NF-kB SEAP reporter activity

Use the examples below as a reference point.
- compound: "COc1ccc2c(-c3ccc(O)c(C)c3)ccnc2c1 (library stock concentration (final ~1000-fold dilution): .1 mM)"
  NF-kB SEAP reporter activity: 0.85
- compound: "CCN(CC)Cc1ccc2cc(COC(=O)Nc3ccc(C(=O)NO)cc3)ccc2c1.Cl.O (library stock concentration (final ~1000-fold dilution): 10 mM)"
  NF-kB SEAP reporter activity: 1.04
- compound: "O=C(O)CCn1c2c(c3ccccc31)CC(NS(=O)(=O)c1ccc(F)cc1)CC2 (stereo unspecified) (library stock concentration (final ~1000-fold dilution): 10 mM)"
  NF-kB SEAP reporter activity: 1.07

NF-kB SEAP reporter activity measured on O=C(NCC(O)CN1CCc2ccccc2C1)c1ccnc(NC2CCC2)c1 (stereo unspecified) (library stock concentration (final ~1000-fold dilution): 10 mM) = 0.884

Form field NF-kB SEAP reporter activity, entry CC(Oc1cc(-n2cnc3ccc(CN4CCN(C)CC4)cc32)sc1C(N)=O)c1ccccc1C(F)(F)F (stereo unspecified) (library stock concentration (final ~1000-fold dilution): 10 mM) : 0.799

Entry CC1CC(=O)c2c(ccc3c2C(=O)c2cccc(O)c2C3=O)C1 (stereo unspecified) (library stock concentration (final ~1000-fold dilution): 10 mM) — recorded NF-kB SEAP reporter activity = 0.991

====

Tested on: RAW-Dual
assay.info: NF-kB SEAP reporter activity, fold change vs agonist alone; cytotoxicity flag (confluency mask): not cytotoxic; higher = enhanced NF-kB activity
setup.conditions: agonist: Pam3CSK4 (TLR2/1) 0.1 ug/mL
Whole data set: some 2,900 compounds, median “NF-kB SEAP reporter activity, fold change vs agonist alone” near 0.99, cut for the highest 2% near 2.6. The sample as a whole holds a higher share of the highest values than the screen did.
result.type: NF-kB SEAP reporter activity
Write no unit; give the number alone.

- compound: "CSC1(C(=O)Nc2ccc3[nH]nc(-c4ccc(OC(C)C)nc4)c3c2)CCN(CC(=O)N2CC=C(c3ccc(-c4ncn(C)n4)cc3)CC2)C1 (stereo not drawn) (library stock concentration (final ~1000-fold dilution): 10 mM)"
  NF-kB SEAP reporter activity: 0.136
- compound: "Cl.Cl.Fc1ccc(C(c2ccc(F)cc2)N2CCN(C/C=C/c3ccccc3)CC2)cc1 (library stock concentration (final ~1000-fold dilution): 10 mM)"
  NF-kB SEAP reporter activity: 1.09

The recorded NF-kB SEAP reporter activity with RAW-Dual for CNC(=O)c1ccc(-c2cnc3cnc(-c4ccccc4)cn23)cc1 (library stock concentration (final ~1000-fold dilution): 10 mM) was 2.3

====

System: RAW-Dual
assay.info: NF-kB SEAP reporter activity, fold change vs agonist alone; cytotoxicity flag (confluency mask): not cytotoxic; higher = enhanced NF-kB activity
setup.conditions: agonist: ODN 1826 (TLR9) 0.5 ug/mL
Whole data set: some 2,900 compounds, median “NF-kB SEAP reporter activity, fold change vs agonist alone” near 0.99, cut for the highest 2% near 2.6. What follows is part of a selection rich in the highest values, with near analogues and random picks from the rest.
The label depends only on NF-kB SEAP reporter activity: MET if it is at least 0.9, NOT MET if it is smaller.

- molecule: "CCNC(=O)[C@]12CCC(C)(C)C[C@H]1[C@H]1C(=O)C=C3[C@@]4(C)C=C(C#N)C(=O)C(C)(C)[C@@H]4CC[C@@]3(C)[C@]1(C)CC2 (library stock concentration (final ~1000-fold dilution): 10 mM)"
  label: "NOT MET"
- molecule: "CC(C)CC(=O)NC(C(=O)NC(C(=O)NC(CC(C)C)C(O)CC(=O)NC(C)C(=O)NC(CC(C)C)C(O)CC(=O)O)C(C)C)C(C)C (stereo unspecified) (library stock concentration (final ~1000-fold dilution): 10 mM)"
  label: "NOT MET"
- molecule: "CC(=O)NC1C(NC(=N)N)C=C(C(=O)O)OC1C(O)C(O)CO (stereo unspecified) (library stock concentration (final ~1000-fold dilution): 10 mM water)"
  label: "MET"
- molecule: "CC(=O)C1CCC2C3CCC4=CC(=O)CCC4(C)C3CCC12C (stereo unspecified) (library stock concentration (final ~1000-fold dilution): 10 mM)"
  label: "MET"
- molecule: "OCCn1cc(-c2ccc3c(c2)CC/C3=N\\O)c(-c2ccncc2)n1 (library stock concentration (final ~1000-fold dilution): 10 mM)"
  label: "MET"
- molecule: "CNCCN(C)Cc1c[nH]nc1-c1ccc(OC2CC(OCCC3CCOCC3)C2)cc1.Cl.Cl (stereo unspecified) (library stock concentration (final ~1000-fold dilution): 10 mM)"
  label: "NOT MET"
- molecule: "Cl.Cn1cc(C(=O)Nc2ccc3c(c2)OCCO3)c2ccccc2c1=O (library stock concentration (final ~1000-fold dilution): 10 mM)"
  label: "MET"
- molecule: "CN1CCN(CC(=O)N2c3ccccc3C(=O)Nc3cccnc32)CC1.Cl.Cl (library stock concentration (final ~1000-fold dilution): 10 mM water)"
  label: "MET"
- molecule: "CC(=O)ON=C1C(c2c(O)[nH]c3cc(Br)ccc23)=Nc2ccccc21 (library stock concentration (final ~1000-fold dilution): 10 mM)"
  label: "MET"

Here's the next entry for you.
Query: # check: NF-kB SEAP reporter activity of CC(=O)OC1(C(C)=O)CCC2C3C=C(Cl)C4=CC(=O)CCC4(C)C3CCC21C (stereo unspecified) (library stock concentration (final ~1000-fold dilution): 10 mM) is greater than or equal to 0.9
Reply: MET
